# protocol_summary: soluble on expression in E. coli; label from the status in PepcDB or PDB records
assay_endpoint: soluble on expression in E. coli

Sample answers from the record:
[[record]]
sequence_text = "MANTGSLVLLRHGESDWNALNLFTGWVDVGLTDKGQAEAVRSGELIAEHDLLPDVLYTSLLRRAITTAHLALDSADRLWIPVRRSWRLNERHYGALQGLDKAETKARYGEEQFMAWRRSYDTPPPPIERGSQFSQDADPRYADIGGGPLTECLADVVARFLPYFTDVIVGDLRVGKTVLIVAHGNSLRALVKHLDQMSDDEIVGLNIPTGIPLRYDLDSAMRPLVRGGTYLDPEAAAAGAAAVAGQGRGGVPRGAAALEHHHHHH"
result = "soluble"

[[record]]
sequence_text = "MVIMSSTFMGYERENGRIGTRNHVLIIPVDDLSNTVAAAVENNIFGTRAILHPYGRLQFGADLDLTFRTLAGYGRNPNVASAIVVGIEDNWTNRIADQISQTGKHVETVSIEGSGDLKAIEKASRLAKEMAQESSTKTRKEFDVSNLIVSTKCGESDTTSGLASNPTVGVVFDRLVDEGATVIFGETSELTGAEKYIAEKMANNELKDKFMKIFNDYQDVIKSQGVDLLGSQPTEGNIKGGLSTIEEKALGNIQKAGTKKITGVLDYAEEPKSKGLNFMNTSSAAAEAVTLFAAAGAVVHLFTTGQGNIVGNHILPVIKTTANPKTAKNMAEHIDLDLSGLLKFEYTLKDAGDKLYNLLLETASGKLTSNEVLKHYEFALTKLYISA"
result = "not soluble"

[[record]]
sequence_text = "GIDPFTKMGGDRRPITILTSDLRGFTSTSEGLNPEEVVKVLNIYFGKMADVITHHGGTIDEFMGDGILVLFGAPTSQQDDALRAVACGVEMQLALREVNQQVTGLGLQPLEMGIGINTGEVVVGNIGSEKRTKYGVVGAQVNLTYRIESYTTGGQIFISSTTLEAAGDRVHVNGNRTVQPKGVKDPVVIWDVAGVGEPYNLSLAVEEQ"
result = "soluble"

[[record]]
sequence_text = "MEEDNQQDQNNQYVIYHPFFSEGCHFYFIISCTNSFIRVALKIGLIGDSQIGKTSLMVKYVEGSFDEDYIQTLGVNFMDKKIQIRNTTITFSIWDLGGQKEFINMLPLVSNDAVAILFMFDLTRKSTLNSIKEWYRQVRGFNKTAIPFLVGTKYDQFIDLSFQDQIEITQQAKKFGSAMKAPVIFCSTSHSINVQKIFKIILSKAFDLKLNLDEIVNVGEPILIYK"
result = "not soluble"

[[record]]
sequence_text = "MKIAVVGCDGFGKVHLRAMRNISGIEYYVFSRNEEKARECMKEFNAEGYFTRYEDVIKSNVDIVDLLVSHDQHYPMGVMAMKAGKHLMLEKPIARTIEEAMGLINTSKDTKRKFMVLEQFYFESSVRKAKELLPRLGNLSLIIVRSIHLYQ"
result = "not soluble"


# next sequence below
Look up soluble on expression in E. coli: `MAEIDYKKVTGMIHSTESFGSVDGPGIRFIIFMQGCKMRCQYCHNPDTWEMETNNSKERTVEDVLKEALRYKHFWGKDGGITVSGGEAMLQIDFITALFIEAKKLGIHTTLDTCGFAYRATPEYHAILEKLLDVTDLVLLDLKEIDSEQHKIVTRQSNKNILQFARYLSDRGTPVWIRHVLVPGLTD`
not soluble

====

# protocol_summary: soluble on expression in E. coli; label from the status in PepcDB or PDB records
assay_endpoint: soluble on expression in E. coli

Sample answers from the record:
[[record]]
sequence_text = "MGSSHHHHHHSSGLVPRGSHMIMIHIKAIHDLTVPLETYMPIWPTNPLLEIKPVGTVARDGYKIETISGSTHSGTHIDAPAHMLENGITIDQIDPIRFIGTGYCIKTIPDGNFVRSTHLIEKWKEEYDGSIILIETGWYKKRGFTREFQYEFPGLTEDAAEFLIERNVKLVGIDTLGIEPYQDSDFHVHKKLLSKGIPFIEDLYGLDDLEEGKPYLVVALPLKMKGASGSMARVMALEMD"
result = "soluble"

[[record]]
sequence_text = "GAMGSWNPKYDTRTLWTTPDTSPNCTIAQDKDSKLTLVLTKCGSQILANVSLIVVAGKYHIINNKTNPKIKSFTIKLLFNKNGVLLDNSNLGKAYWNFRSGNSNVSTAYEKAIGFMPNLVAYPKPSNSKKYARDIVYGTIYLGGKPDQPAVIKTTFNQETGCEYSITFNFSWSKTYENVEFETTSFTFSYIAQE"
result = "soluble"

[[record]]
sequence_text = "SEKLINRVGPNGESRAQAVTSDQEKRLLHQLREITRVMKEGKFIDTSPEKEAEEAPYMEDWEGYPEETYPIYDLSDGIKRRQETILVDYPDLKEPSAEEIAEQMGEIEEEGSERLSWDHLPTDPGAQKDNSVAPCDPKPESCSCCVHEEEDPAVLAENAGFSADGYSEQEEATKENLPQDFTNEGLGVSTDNAHVGGMLRKRNPQGFE"
result = "soluble"

[[record]]
sequence_text = "MAGKLIANLIVMGSGIIGRAMLQAYRKALDNANKTGVAHETINNIRRASKTMTEQEARQILGVSEQSTWEEIAQRYDNLFERNAKSGSFYLQSKVHRAKECLENVYQKNKQDGTPP"
result = "soluble"

[[record]]
sequence_text = "MSIVLSADHKDALQEFMNISMGRAASKLATLLNLHVTISVPNIRVATEEDMRALQSYAADYYYTRQSFYGGMDGELITLMSRCGCEQVVNDLNHSKGMADGLVSIEESILDISNILSGASLKGLCQQIELKTKIQPPVIFDPTHQPLPILQWRLSLIMEINFLVEKASFSAKTIICFADKELDKVFAHLDELLM"
result = "not soluble"

[[record]]
sequence_text = "MYLKRPIWSDGASATPENPSESETGEESDAASMVVEELVTSLNTQRLYRELTLSLRTGLRDACAEFSFLRIRGLRSLLKTLRTVADSDSIIRLFSHTQTISDLQLVPVLFQHSLKEAEDDKVTSLDHIFSVEPMKITSPSTDAEVAVALRVLEGCCLLHPQSTVLAHKHGAVRVMMNVLSTRGVLEQGACLDALISVLLDSSANQVDFGACNGIEEVAMLMRDKQADENLSIYTIKIAVNEDSFPFCLFWLRCGEFLLLLVGHVNGKDRSPIASVNEDIRRLLGEKSASLIWAASQFGSTGDPEQRITALHIQAGRVLESLDLY"
result = "soluble"


# next sequence below
Look up soluble on expression in E. coli: `MGMTRNLLAAGLAAVLALPALAAELVMVEQHGCEWCARWNEEIAPIYPKTAEGAFAPLRRVDLRAIPADLETARRVVFTPTFLIVEDGRELARLEGYPGEDFFWPLLEQLLVDHAGFVPKKPGSS`
not soluble

====

# protocol_summary: soluble on expression in E. coli; label from the status in PepcDB or PDB records
assay_endpoint: soluble on expression in E. coli

Sample answers from the record:
[[record]]
sequence_text = "MSLKTLFDKTNLGTINMKNRFLRGALWTALADEKGHMTNELSDVYEELARGGVGTIVTGYAFVTENEQPNPRMMGIYDDSFIPEYKEFTDKIHRLGSNIIMQIVYGGFMTEFNVGERVIWGPSTTKNEVTGTLSREMTKEDIKYLVNAYAEAALRVKKSGFDGVEIHGGHGYLVSQFLSPYYNKRTDEYGGSIENRGRFVFEIFKAIREKVGEKFPILIKLNSSDYVKEGGLTIEDSLYVAERLAELGIDAIEVTGGNESIEEVMKNNLGPSRTKVAISKDRESYFKEYAIKLAERINKPVILSGGNRHFDVMEELLNDTNIEYFSLSRPLTAEPDLINKWYSGDLKKPKCKSCNQCYKTYGKRCIFNIKEGHHHHHH"
result = "soluble"

[[record]]
sequence_text = "MRYKKTLMLSIMITSFNSFAFNDNYSSTSTVYATSNEATDSRGSEHLRYPYLECIKIGMSRDYLENCVKVSFPTSQDMFYDAYPSTESDGAKTRTKEDFSARLLAGDYDSLQKLYIDFYLAQTTFDWEIPTRDQIETLVNYANEGKLSTALNQEYITGRFLTKENGRYDIVNVGGVPDNTPVKLPAIVSKRGLMGTTSVVNAIPNEIYPHIKVYEGTLSRLKPGGAMIAVLEYDVSELSKHGYTNLWDVQFKVLVGVPHAETGVIYDPVYEETVKPYQPSGNLTGKKLYNVSTNDMHNGYKWSNTMFSNSNYKTQILLTKGDGSGVKLYSKAYSENFK"
result = "not soluble"

[[record]]
sequence_text = "MGSDKIHHHHHHMKFEVASNVLLQHLQLIARVIASRSTLPILESVLFELEGDQLRLTAADMANRMSTELTVNNVGGENGSFAVPERILLEPLKELPDQPISFEINMETKAAEIAYSNGHYSFVVQDVSTYPVAASLSPEAIVSIVPAEALLSGLSATLFATSQDERRPIMTGVYLDFFEDKLVFVGSDGQILVKQEDANVQSRRRSAFCLPRKACLLLRNVLPRLEGDVTLTYDSNYLHIELGNYTLRARLLEGRYPNYNSVIPTSNPFSVKVDRAQLLSGAKRVSIFSNPATSMLRMEFTPAGIRLSANDIDFSVAAEEHVPAECPADINMRIGFKSDVFQTILQGMPSEEVIMTLADQTRAGLILPAENAPGISLCNLLLPMKLIGE"
result = "not soluble"

[[record]]
sequence_text = "MGSDKIHHHHHHMTTNKEQYKVHQEPYYQAQGREVQLYEAAYRNRLPVMVKGPTGCGKSRFVEYMAWKLNKPLITVACNEDMTASDLVGRYLLEANGTRWLDGPLTTAARIGAICYLDEVVEARQDTTVVIHPLTDHRRTLPLDKKGELIEAHPDFQLVISYNPGYQSLMKDLKQSTKQRFAAFDFDYPDAALETTILARETGLDETTAGRLVKIGGVARNLKGHGLDEGISTRLLVYAATLMKDGVDAGDACRMALVRPITDDADIRETLDHAIDATFA"
result = "not soluble"

[[record]]
sequence_text = "MSLKTLATIGDNCVDIYPQLNKAFSGGNAVNVAVYCTRYGIQPGCITWVGDDDYGTKLKQDLARMGVDISHVHTKHGVTAQTQVELHDNDRVFGDYTEGVMADFALSEEDYAWLAQYDIVHAAIWGHAEDAFPQLHAAGKLTAFDFSDKWDSPLWQTLVPHLDFAFASAPQEDEALRLKMKAIVARGAGTVIVTLGENGSIAWDGAQFWRQAPEPVTVIDTMGAGDSFIAGFLCGWSAGMTLPQAMAQGTACAAKTIQYHGAEGHHHHHH"
result = "soluble"


Look up soluble on expression in E. coli: `MGKRVLIVDDATNGREAVEKYKELKPDIVTMDITMPEMNGIDAIKEIMKIDPNAKIIVCSAMGQQAMVIEAIKAGAKDFIVNTAAVENPSLITQIAQTFGSQAVVVAIDAKRVDGEFMVFTYSGKKNTGILLRDWVVEVEKRGAGEILLTSIDRDGTKSGYDTEMIRFVRPLTTLPIIASGGAGKMEHFLEAFLAGADAALAASVFHFREIDVRELKEYLKKHGVNVRLEGLLEHHH`
soluble

Next up: `MSLSISFKDVPAGHWSYKAILDLASKNIVTGYGNGIFGFGDDVTREQVARLMYLQLKPESQENYNNPYNDINDHSTSFKREILALTEMGIFAGDEKGNFRPKASLTREEMAQVLTNAYKLVAKSEHTFVDVDRKSWSNKAISAVQSNRIAAGTGDNMFSPKMNVTREQYVQFLYNATLPYEERPGANQEPKRFANCKEANDAGYYDITRDSPYYGKHLDRDGDGIACERNKSSKEGHHHHHH`
not soluble

Next up: `MGSDKIHHHHHHAQTEVLTGVTRGKDYGVVYALPKTQIEIEIKANKVNYKPGEFSKYADRYLRLTNVSAEPEEYWELNSVKVKPVGVPNSEATYFVKLKDKTVAPLMELTEEGLIKSINVPYSSNNAKNAANNAVAPQRKANPRDFLTEEILMASSTAKMAELVAKEIYNIRESKNALLRGQADNMPSDGAQLKIMLDNLNLQEEAMTEMFSGVRNKEEKTFTVRLTPDKEFDNEVAFRFSKKLGIVANNDLAGTPFYISLKDLKTVKIPQEDGKKKKEMEGIAYNVPGQAMVTLTDGKKKLYEGEIPVTQFGIIEYLAPVLFNKNSTIKVYFDPVTGGLLKVDREESK`
not soluble

Next up: `GKLHEPYEIIVIDVPSEYQGNVTQLLATRKGLMQSMSTTPGSDWIRMEFRIPARGLIGFRTQFMTETRGTGIANSYSDGMDVWAGEIKGRAHGSLVADRSGQITAYALTQLADRGSFFVEPGTETYEGVV`
not soluble

Next up: `MKHFDFSLRIWPISLWFVKHSGVKNPMNEVIIREITSEDKEMFLCAMQSSQALHHPWVKAPIIPEEFDEYFSRYQKPNQKSYLLLSDNNLAGVFNISEIVRGYFQNAYLGFYVVAAYAGKGYMSTGLKLILTKVFKDMGLHRLEANIQPENTRSIWLVKKNGFRYEGFSPRYLRVNDVWQGHEHWAMTYEDFIKDNNEVLEKDHIDIVAYNTEWPLLAKAEMVKLRASFPANSVIDIQHVGSTAIPGMASKPIIDIQIAVRSLEEMKIIAVPILQKLDYEYWEDNPDPERMFFVKGMPPYGNGRTHHVHIVEASSRHWKGKTFFRDYLLSHPEAAEKYQQLKIKLAQEHKYDREQYTDAKSEFINQILKLAQN`
not soluble

Data provenance: the DeepSol protein solubility set
